Examples of variants with documented normalized RNA/DNA level with ligand (log10) follow.
B1: library; a variant is named by its letters at N, in order (parent)
chain: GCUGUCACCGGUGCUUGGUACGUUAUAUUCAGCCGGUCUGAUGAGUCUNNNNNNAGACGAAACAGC

variants of: B1; test: normalized RNA/DNA level with ligand (relative to sTRSVctl = 100) (log10 (% of sTRSVctl)); HEK293T overexpressing SLC46A1; ligand concentration (+) RNA-Seq: 6 mM; higher = less ribozyme self-cleavage, higher mRNA level; conditions: with (6R,S)-folinic acid; ligand present: yes
API note: the answer field is a bare number with no unit suffix.

Here is how some variants turned out for normalized RNA/DNA level with ligand (log10).
{"columns": ["SEQUENCE RECORD", "VAL"],
 "data": [
  ["GCUGUCACCGGUGCUUGGUACGUUAUAUUCAGCCGGUCUGAUGAGUCUAAGGGGAGACGAAACAGC [AAGGGG]", 2.04],
  ["GCUGUCACCGGUGCUUGGUACGUUAUAUUCAGCCGGUCUGAUGAGUCUCGGCAAAGACGAAACAGC [CGGCAA]", 2.05],
  ["GCUGUCACCGGUGCUUGGUACGUUAUAUUCAGCCGGUCUGAUGAGUCUUCCAUGAGACGAAACAGC [UCCAUG]", 1.97],
  ["GCUGUCACCGGUGCUUGGUACGUUAUAUUCAGCCGGUCUGAUGAGUCUGUUAGUAGACGAAACAGC [GUUAGU]", 2.03],
  ["GCUGUCACCGGUGCUUGGUACGUUAUAUUCAGCCGGUCUGAUGAGUCUGAAUCCAGACGAAACAGC [GAAUCC]", 2.02]
]}

Read the next record carefully.
-- ask Quick check: normalized RNA/DNA level with ligand (log10) of GCUGUCACCGGUGCUUGGUACGUUAUAUUCAGCCGGUCUGAUGAGUCUGCGGAAAGACGAAACAGC [GCGGAA] ?
-- reply 2.02
